Test system: Huh-7
protocol: Antiproliferative activity against human Huh-7 cells assessed as inhibition of cell growth at 10 uM measured after 72 hrs by CCK8 assay
Assay type: functional
assayMetric: inhibition at 10 µM

>>> value("C=C(F)C(=O)Nc1ccc(-c2ccc(NC(=O)Nc3ccc(CN4CCN(C)CC4)c(C(F)(F)F)c3)c(C)c2)cn1")
"93%"
>>> value("Cc1cc(-c2ccc(NC(=O)CCl)nc2)ccc1NC(=O)Nc1ccc(CN2CCN(C)CC2)c(C(F)(F)F)c1")
"80.9%"
>>> value("C=CC(=O)Nc1ccc(-c2ccc(NC(=O)Nc3ccc(CN4CCN(C)CC4)c(C(F)(F)F)c3)c(Cl)c2)cn1")
"91.4%"
>>> value("C=CC(=O)Nc1ccc(-c2ccc(NC(=O)Nc3ccc(CN4CCN(C)CC4)c(C(F)(F)F)c3)cc2C)cn1")
"96.9%"
>>> value("C=CC(=O)Nc1ccc(Oc2ccc(NC(=O)Nc3ccc(CN4CCN(C)CC4)c(C(F)(F)F)c3)cc2)cn1")
"97.7%"
>>> value("C=CC(=O)Nc1ccc(-c2ccc(NC(=O)Nc3ccc(CN4CCN(C)CC4)c(C(F)(F)F)c3)c(C)c2)cn1")
"94.8%"
>>> value("C/C=C/C(=O)Nc1ccc(Oc2ccc(NC(=O)Nc3ccc(CN4CCN(C)CC4)c(C(F)(F)F)c3)c(C)c2)cn1")
"86.7%"

###

protocol: Clearance in Sprague-Dawley rat at 5 mg/kg, iv measured upto 24 hrs by LC/MS/MS analysis
Format: ADME, organism-based
measurementContext: in vivo
assayMetric: clearance (L/h/kg)

>>> value("C=CC(=O)Nc1ccc(Oc2ccc(NC(=O)Nc3ccc(CN4CCN(C)CC4)c(C(F)(F)F)c3)cc2)cn1")
1.18

###

protocol: Cmax in Sprague-Dawley rat at 20 mg/kg, po measured upto 24 hrs by LC/MS/MS analysis
Type: ADME, organism-based
Parameters: dose 20 mg/kg, time < 24 hrs, route po
measurementContext: in vivo
assayMetric: Cmax (ng/mL)

>>> value("C=CC(=O)Nc1ccc(Oc2ccc(NC(=O)Nc3ccc(CN4CCN(C)CC4)c(C(F)(F)F)c3)cc2)cn1")
23.7

###

protocol: Cmax in Sprague-Dawley rat at 5 mg/kg, iv measured upto 24 hrs by LC/MS/MS analysis
Assay type: ADME, organism-based
Set-up: time < 24 hrs, dose 5 mg/kg, route iv
measurementContext: in vivo
assayMetric: Cmax (ng/mL)

>>> value("C=CC(=O)Nc1ccc(Oc2ccc(NC(=O)Nc3ccc(CN4CCN(C)CC4)c(C(F)(F)F)c3)cc2)cn1")
4190

###

System: Huh-7
protocol: Antiproliferative activity against human Huh-7 cells assessed as inhibition of cell growth at 10 uM measured after 72 hrs by CCK8 assay
Type: functional
Quick reference: inhibition at 10 µM of the listed items.
assayMetric: inhibition at 10 µM (%)

>>> value("C=CC(=O)Nc1ccc(Oc2ccc(NC(=O)Nc3ccc(CN4CCN(C)CC4)c(C(F)(F)F)c3)c(C)c2)cn1")
87.2
>>> value("CC#CC(=O)Nc1ccc(Oc2ccc(NC(=O)Nc3ccc(CN4CCN(C)CC4)c(C(F)(F)F)c3)c(C)c2)cn1")
93.2
>>> value("C=CC(=O)Nc1ccc(-c2ccc(NC(=O)Nc3ccc(CN4CCN(C)CC4)c(C(F)(F)F)c3)nc2)cn1")
59
>>> value("Cc1ccc(C(=O)Nc2ccc(CN3CCN(C)CC3)c(C(F)(F)F)c2)cc1C#Cc1cnc2cccnn12 [PONATINIB]")
90.5
>>> value("C=CC(=O)Nc1ccc(-c2cnc(NC(=O)Nc3ccc(CN4CCN(C)CC4)c(C(F)(F)F)c3)cn2)cn1")
84.5
>>> value("C=CC(=O)Nc1ccc(-c2ccc(NC(=O)Nc3ccc(CN4CCN(C)CC4)c(C(F)(F)F)c3)cc2F)cn1")
96.7
>>> value("C=CC(=O)Nc1ccc(-c2ccc(NC(=O)Nc3ccc(CN4CCN(C)CC4)c(C(F)(F)F)c3)cc2)cn1")
94.8
>>> value("C=CC(=O)Nc1ccc(-c2ccc(NC(=O)Nc3ccc(CN4CCN(CC)CC4)c(C(F)(F)F)c3)c(C)c2)cn1")
80.3

###

protocol: Mean residence time (0 to t) in Sprague-Dawley rat at 20 mg/kg, po measured upto 24 hrs by LC/MS/MS analysis
Assay type: ADME, organism-based
measurementContext: in vivo
assayMetric: MRT last at 24 h (h)

>>> value("C=CC(=O)Nc1ccc(Oc2ccc(NC(=O)Nc3ccc(CN4CCN(C)CC4)c(C(F)(F)F)c3)cc2)cn1")
3.99

###

protocol: AUC(0 to t) in Sprague-Dawley rat at 5 mg/kg, iv measured upto 24 hrs by LC/MS/MS analysis
Assay type: ADME, organism-based
Parameters: time < 24 hrs, dose 5 mg/kg, route iv
measurementContext: in vivo
assayMetric: AUC(0-t) at 24 h

>>> value("C=CC(=O)Nc1ccc(Oc2ccc(NC(=O)Nc3ccc(CN4CCN(C)CC4)c(C(F)(F)F)c3)cc2)cn1")
"4240 ng·h/mL"

###

protocol: Initial plasma concentration in Sprague-Dawley rat at 5 mg/kg, iv measured upto 24 hrs by LC/MS/MS analysis
Format: ADME, organism-based
assayMetric: C0 at 24 h (ng/mL)

>>> value("C=CC(=O)Nc1ccc(Oc2ccc(NC(=O)Nc3ccc(CN4CCN(C)CC4)c(C(F)(F)F)c3)cc2)cn1")
4930

###

protocol: AUC(0 to t) in Sprague-Dawley rat at 20 mg/kg, po measured upto 24 hrs by LC/MS/MS analysis
Type: ADME, organism-based
Set-up: dose 20 mg/kg, time < 24 hrs, route po
measurementContext: in vivo
assayMetric: AUC(0-t) at 24 h (ng·h/mL)

>>> value("C=CC(=O)Nc1ccc(Oc2ccc(NC(=O)Nc3ccc(CN4CCN(C)CC4)c(C(F)(F)F)c3)cc2)cn1")
140

###

Tested on: Hep 3B2
protocol: Antiproliferative activity against human Hep3B cells assessed as inhibition of cell growth at 10 uM measured after 72 hrs by CCK8 assay
Format: functional
assayMetric: inhibition at 10 µM (%)

>>> value("C=CC(=O)Nc1ccc(Oc2ccc(NC(=O)Nc3ccc(CN4CCN(C)CC4)c(C(F)(F)F)c3)c(C)c2)cn1")
84.7
>>> value("C=CC(=O)Nc1ccc(-c2cnc(NC(=O)Nc3ccc(CN4CCN(C)CC4)c(C(F)(F)F)c3)cn2)cn1")
86.1
>>> value("C=CC(=O)Nc1ccc(-c2ccc(NC(=O)Nc3ccc(CN4CCN(C)CC4)c(C(F)(F)F)c3)c(Cl)c2)cn1")
99.1

###

protocol: Apparent volume of distribution in Sprague-Dawley rat at 5 mg/kg, iv measured upto 24 hrs by LC/MS/MS analysis
Assay type: ADME, organism-based
measurementContext: in vivo, read-out: Vz
assayMetric: Vd

>>> value("C=CC(=O)Nc1ccc(Oc2ccc(NC(=O)Nc3ccc(CN4CCN(C)CC4)c(C(F)(F)F)c3)cc2)cn1")
"8.1 L/kg"
